- measurementTarget: T1, PDZD7_3, Q9H5P4
- T1 sequence (Q9H5P4 857-944, limits assumed, looked up): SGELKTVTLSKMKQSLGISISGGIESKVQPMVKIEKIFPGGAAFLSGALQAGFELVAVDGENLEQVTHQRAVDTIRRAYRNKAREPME
- test: holdup assay
- Design: key: below the threshold = too weak to quantify, mostly under pKd 3.1 to 4
- assayContext: plain residues with an end cap or a label only (N-terminal biotin on a linker: ado-ado)

- binder: "QGPVETESVV [SLC45A4, Q5BKX6]"
  pKd: 4.56
- binder: "QGLAERISVL [PRKD2, Q9BZL6]"
  pKd: 5.21
- binder: "GQEEQVTTRL [TRPC5, Q9UL62]"
  pKd: 4.89
- binder: "LPHPHSTTRV [NLGN2, Q8NFZ4]"
  pKd: 4.26
- binder: "RHGSCVETSL [TMEM151B, Q8IW70]"
  pKd: 4.46
- binder: "TKGPRGPTRV [SAPCD1, Q5SSQ6]"
  pKd: 4.74
- binder: "SARSRLSSNL [HCN2, Q9UL51]"
  pKd: 4.09
- binder: "QHKTQLQTLI [BPIFA2, Q96DR5]"
  pKd: 5.15
- binder: "TACCHSETVV [TGFA, P01135]"
  pKd: 5.04
- binder: "PKRSFIESNV [TANC1, Q9C0D5]"
  pKd: 4.12
